Assay: Particle size of nucleic acid lipid particles (Luc2-siRNA)
Assay type: physicochemical
Details: compound/DSPC/cholesterol/DMG-PEG2000 50/10/38.5/1.5
Metric Name: Particle size (nm)

1) CCCCC/C=C\C/C=C\CCCCCCCCC(CCCCCCCC/C=C\C/C=C\CCCCC)OC(=O)OCCN(CCN(CC)CC)Cc1ccccc1    69
2) CCCCC/C=C\C/C=C\CCCCCCCCC(CCCCCCCC/C=C\C/C=C\CCCCC)OC(=O)OCCN(CC)CCN(CCC)CCC    74.3
3) CCCCC/C=C\C/C=C\CCCCCCCCC(CCCCCCCC/C=C\C/C=C\CCCCC)OC(=O)OCCN(CCN(C)C)C1CCCCC1    71.6
4) CCCCCCCC/C=C\CCCCCCCC(=O)OCCCCCCC(CCCCCCOC(=O)CCCCCCC/C=C\CCCCCCCC)OC(=O)OCCN(CCCCCC)CCN(C)C    74.5
5) CCCCC/C=C\C/C=C\CCCCCCCCC(CCCCCCCC/C=C\C/C=C\CCCCC)OC(=O)OCCN(C)C [Comparative Example 4, reference compound]    62.8
6) CCCCCCCCCC(=O)OCCN(CCOC(=O)OC(CCCCCC)CCCC(=O)OCC(CCCCCC)CCCCCCCC)CCN(CC)CC (stereo not shown)    60.7
7) CCCCCC/C=C/COC(=O)CCCCCCCN(CCCCCCCC(=O)OC/C=C/CCCCCC)C(=O)OCCN(C)CCN(C)C    254.2
8) CCCCC/C=C\C/C=C\CCCCCCCCN(CCCCCCCC/C=C\C/C=C\CCCCC)C(=O)OCCN(C)CCN(CC)CC    98.6
9) CCCCC/C=C\C/C=C\CCCCCCCCC(CCCCCCCC/C=C\C/C=C\CCCCC)OC(=O)OCCN(CC)CCN(C)C    62.0
10) CCCCCCCCC(CCCCCC)COC(=O)CCCCCC(CCCCCC)OC(=O)OCCN(CCN(CC)CC)C(C)C (stereo not shown)    76.3
11) CCCCCCCCC(CCCCCC)COC(=O)CCCCCCCCC(CCCCC)OC(=O)OCCN(CCOC(=O)CCCCCCC)CCN(CC)CC (stereo not shown)    98.4
12) CCCCCCCCC(CCCCCC)COC(=O)CCCC(CCCCCC)OC(=O)OCCN(CCN(CC)CC)C(C)C (stereo not shown)    83.6
13) CCCCC/C=C\C/C=C\CCCCCCCCN(CCCCCCCC/C=C\C/C=C\CCCCC)C(=O)OCCN(C)C [Comparative Example 3, reference compound]    72.4

----------
# Nucleic acid encapsulation rate per record follows
Test: Nucleic acid encapsulation rate of nucleic acid lipid particles (FVII-siRNA)
Assay type: physicochemical
Method: A 3 mol/L aqueous sodium acetate solution (30 μL) and 9 μL of glycogen were added to 60 μL of the lipid particles retaining nucleic acids, and then 1.5 mL of ethanol was added thereto such that only the nucleic acids were precipitated while the lipid was dissolved. Then, the supernatant was removed by centrifugation. […] The nucleic acid concentration was quantified using a Quant-iT RiboGreen RNA Assay Kit (Thermo Fisher Scientific) according to the protocol. […]
Metric Name: Nucleic acid encapsulation rate (%)

1) CCCCCCCCC(=O)OCCN(CCOC(=O)OC(CCCCCC)CCCCCCCCC(=O)OCC(CCCCC)CCCCC)CCN(CC)CC (stereo not shown)    68
2) CCCCCCCOC(=O)CCN(CCOC(=O)OC(CCCCCC)CCCCCCCCC(=O)OCC(CCCC)CCCCCC)CCN(CC)CC (stereo not shown)    84
3) CCCCCCC(CCCC)COC(=O)CCCCCCCCC(CCCCCCCCC(=O)OCC(CCCC)CCCCCC)OC(=O)OCCN(CC)CCN(CC)CC (stereo not shown)    85
4) CCCCCCCCCCC(CCCCCCCC)COC(=O)CCCCCCCCC(CCCCCC)OC(=O)OCCN(CCN(CC)CC)C(C)C (stereo not shown)    70
5) CCCCC/C=C\C/C=C\CCCCCCCCC(CCCCCCCC/C=C\C/C=C\CCCCC)OC(=O)OCCN(CCCCCC)CCN(C)C    100
6) CCCCCCCC/C=C\CCCCCCCC(=O)OCCN(CCOC(=O)OC(CCCCCC)CCCC(=O)OCC(CCCC)CCCCCC)CCN(CC)CC (stereo not shown)    69
7) CCCCCCCCCCC(CCCCCCCCCCC(=O)OCC(CCCC)CCCCCC)OC(=O)OCCN(CC)CCN(CC)CC (stereo not shown)    98

----------
Assay: Nucleic acid encapsulation rate of nucleic acid lipid particles (FVII-siRNA)
Assay type: physicochemical
Metric Name: Nucleic acid encapsulation rate (%)

1) CCCCCCCCCC(=O)OCCN(CCOC(=O)OC(CCCCCC)CCCCCCCCC(=O)OCC(CCCCCC)CCCCCCCC)CCN(CC)CC (centres unmarked)    76
2) CCCCCCCC(=O)OCCN(CCOC(=O)OC(CCCCCC)CCCCCCCCC(=O)OCC(CCCCC)CCCCC)CCN(CC)CC (centres unmarked)    58
3) CCCCCCCC/C=C\CCCCCCCC(=O)OCCN(CCCN(CC)CC)CCOC(=O)OC(CCCCCC)CCCCCCCCC(=O)OCC(CCCC)CCCCCC (centres unmarked)    73
4) CCCCCCCCC(CCCCCC)COC(=O)CCCCCCCC(CCCCCC)OC(=O)OCCN(CCN(CC)CC)C(C)C (centres unmarked)    89
5) CCCCCCCCC(CCCCCC)COC(=O)CCCCCCCCC(CCCCCC)OC(=O)OCCN(CCOC(=O)CCCCC)CCN(CC)CC (centres unmarked)    80
6) CCCCCCCCCC(=O)OCCN(CCOC(=O)OC(CCCCCC)CCCCCCCCC(=O)OCC(CCCC)CCCCCC)CCN(CC)CC (centres unmarked)    87
7) CCCCC/C=C\C/C=C\CCCCCCCCC(CCCCCCCC/C=C\C/C=C\CCCCC)OC(=O)OCCN(CC)CCN(CC)CC    88
8) CCCCCCCCC(CCCCCC)COC(=O)CCCCCCCCC(CCCCCC)OC(=O)OCCN(CCN(CC)CC)C(C)C (centres unmarked)    94
9) CCCCCCCCCC(=O)OCCCCCCC(CCCCCCOC(=O)CC(CCCCCCC)CCCCCCC)OC(=O)OCCN(CC)CCN(CC)CC (centres unmarked)    78
10) CCCCCCCCCC(CCCCCCCCC(=O)OCC(CCCC)CCCCCC)OC(=O)OCCN(CC)CCN(CC)CC (centres unmarked)    83
11) CCCCCCCCCCCC(=O)OCCN(CCOC(=O)OC(CCCCCC)CCCC(=O)OCC(CCCCCC)CCCCCCCC)CCN(CC)CC (centres unmarked)    86
12) CCCCCC/C=C\CCCCCCCC(=O)OCCCCCCC(CCCCCCOC(=O)CCCCCCC/C=C\CCCCCC)OC(=O)OCCN(CC)CCN(CC)CC    84
13) CCCCCCCC/C=C\CCCCCCCC(=O)OCCN(CCOC(=O)OC(CCCCCC)CCCCCCCCC(=O)OCC(CCCC)CCCCCC)CCN(CC)CC (centres unmarked)    76
14) CCCCCCCCCCC(CCCCCCCCC(=O)OCC(CCCC)CCCCCC)OC(=O)OCCN(CC)CCN(CC)CC (centres unmarked)    91

----------
Test: Particle size of nucleic acid lipid particles (FVII-siRNA)
Format: physicochemical
Rule: TRUE for Particle size (nm) not less than 80 nm, FALSE for anything less.

1) CCCCCCCC/C=C\CCCCCCCC(=O)OCCN(CCOC(=O)OC(CCCCCC)CCCC(=O)OCC(CCCC)CCCCCC)CCN(CC)CC (stereo not drawn)    FALSE
2) CCCCCCCCC(CCCCCC)COC(=O)CCCCCCCCC(CCCCCC)OC(=O)OCCN(CCOC(=O)CCCCCCC)CCN(CC)CC (stereo not drawn)    FALSE
3) CCCCCCCCC(CCCCCC)COC(=O)CCCCCCCCC(CCCCCC)OC(=O)OCCN(CCOC(=O)CCCCC)CCN(CC)CC (stereo not drawn)    TRUE
4) CCCCCCCC(=O)OCCN(CCOC(=O)OC(CCCCCC)CCCCCCCCC(=O)OCC(CCCCC)CCCCC)CCN(CC)CC (stereo not drawn)    FALSE
5) CCCCCCCCCC(=O)OCCN(CCOC(=O)OC(CCCCCC)CCCCCCCCC(=O)OCC(CCCC)CCCCCC)CCN(CC)CC (stereo not drawn)    FALSE
6) CCCCCCCCCCCC(=O)OCCN(CCOC(=O)OC(CCCCCC)CCCC(=O)OCC(CCCCCC)CCCCCCCC)CCN(CC)CC (stereo not drawn)    FALSE
7) CCCCCCC(CCCC)COC(=O)CCCCCCCCC(CCCCCC)OC(=O)OCCN(CCOC(=O)CCCCC)CCN(CC)CC (stereo not drawn)    TRUE
8) CCCCCCCCC(CCCCCC)COC(=O)CCCC(CCCCCC)OC(=O)OCCN(CCN(CC)CC)C(C)C (stereo not drawn)    TRUE
9) CCCCC/C=C\C/C=C\CCCCCCCCC(CCCCCCCC/C=C\C/C=C\CCCCC)OC(=O)OCCN(CCC)CCN(C)C    FALSE
10) CCCCCCCCCCCCC(CCCCCCCCC(=O)OCC(CCCC)CCCCCC)OC(=O)OCCN(CC)CCN(CC)CC (stereo not drawn)    FALSE
11) CCCCCCCCC(=O)OCCN(CCOC(=O)OC(CCCCCC)CCCCCCCCC(=O)OCC(CCCCC)CCCCC)CCN(CC)CC (stereo not drawn)    FALSE
12) CCCCC/C=C\C/C=C\CCCCCCCCC(CCCCCCCC/C=C\C/C=C\CCCCC)OC(=O)OCCN(CC)CCN(C)C    FALSE
13) CCCCC/C=C\C/C=C\CCCCCCCC(=O)OCCCCCCC(CCCCCCOC(=O)CCCCCCC/C=C\C/C=C\CCCCC)OC(=O)OCCN(CC)CCN(CC)CC    FALSE
14) CCCCCCCCCCC(CCCCCCCCC(=O)OCC(CCCC)CCCCCC)OC(=O)OCCN(CCN(CC)CC)C(C)C (stereo not drawn)    TRUE
15) CCCCCC/C=C\CCCCCCCC(=O)OCCCCCCC(CCCCCCOC(=O)CCCCCCC/C=C\CCCCCC)OC(=O)OCCN(CC)CCN(CC)CC    FALSE
16) CCCCCCCCCCCCC(CCCCCCCCCC)COC(=O)CCCC(CCCCCC)OC(=O)OCCN(CCN(CC)CC)C(C)C (stereo not drawn)    FALSE
17) CCCCCCCC/C=C\CCCCCCCC(=O)OCCN(CCCN(CC)CC)CCOC(=O)OC(CCCCCC)CCCCCCCCC(=O)OCC(CCCC)CCCCCC (stereo not drawn)    FALSE
18) CCCCCCCCCC(=O)OCCN(CCOC(=O)OC(CCCCCC)CCCC(=O)OCC(CCCCCC)CCCCCCCC)CCN(CC)CC (stereo not drawn)    FALSE
19) CCCCCCCC/C=C\CCCCCCCC(=O)OCCN(CCOC(=O)OC(CCCCCC)CCCCCCCCC(=O)OCC(CCCC)CCCCCC)CCN(CC)CC (stereo not drawn)    FALSE
20) CCCCC/C=C\C/C=C\CCCCCCCCC(CCCCCCCC/C=C\C/C=C\CCCCC)OC(=O)OCCN(CCCCCCCC)CCN(C)C    FALSE
21) CCCCCCCCC(CCCCCC)COC(=O)CCCCCCC(CCCCCC)OC(=O)OCCN(CCN(CC)CC)C(C)C (stereo not drawn)    TRUE
22) CCCCCCCC/C=C\CCCCCCCC(=O)OCCN(CCOC(=O)OC(CCCCCC)CCCC(=O)OCC(CCCCCC)CCCCCCCC)CCN(CC)CC (stereo not drawn)    FALSE
23) CCCCCCCCCCCC(=O)OCCN(CCOC(=O)OC(CCCCCC)CCCCCCCCC(=O)OCC(CCCC)CCCCCC)CCN(CC)CC (stereo not drawn)    FALSE
24) CCCCCCC(=O)OCCN(CCOC(=O)OC(CCCCCC)CCCCCCCCC(=O)OCC(CCCC)CCCCCC)CCN(CC)CC (stereo not drawn)    TRUE
